Please provide measured IC50 for the entries that follow.
Tested on: 349418-098-R tumor spheroid viability
Method summary: Anticancer human tumor 349418-098-R patient-derived lung adenocarcinoma cell line growth inhibition
Condition notes: curve of first compound; second compound 31.6 µM; spheroids with HUVEC and MSC
Method: Multicellular complex tumor spheroid response to DNA repair inhibitors in combination with DNA-damaging drugs This study explores the anticancer activities of DNA-damaging drugs and inhibitors of DNA damage repair, both as single agents and in combinations. […] Twenty-six patient-derived or established malignant cell lines were evaluated representing sarcoma, melanoma, small cell lung cancer (SCLC), non-small cell lung cancer (NSCLC), as well as bladder, ovarian and pancreatic cancers. […]
Reply with just the number (in nM).

QUERY: // lookup IC50 for Cc1cc(C)c(CNC(=O)c2cc(-c3ccc(CN4CCOCC4)cc3)cc3c2cnn3C2CCCC2)c(=O)[nH]1 + Cn1nnc2c(C(N)=O)ncn2c1=O
RESULT: 6240

QUERY: Name the recorded IC50 for Cn1ncnc1[C@H]1c2n[nH]c(=O)c3cc(F)cc(c23)N[C@@H]1c1ccc(F)cc1 + Cn1nnc2c(C(N)=O)ncn2c1=O .
RESULT: 131

QUERY: Request the reported IC50 associated with Cc1sc2c(c1C)C(c1ccc(Cl)cc1)=NC(CC(=O)Nc1ccc(O)cc1)c1nnc(C)n1-2 (centres undefined) + Cn1nnc2c(C(N)=O)ncn2c1=O
RESULT: 154

###

Test system: 349418-098-R tumor spheroid viability
Method summary: Anticancer human tumor 349418-098-R cell line growth inhibition; active = viability on the fitted dose curve at most 10% of control; inactive = the rest;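 also: spheroids exposed to compound for 7 days before measurement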
Condition notes: second compound 0.003 µM; first compound 10 µM; spheroids with HUVEC and MSC
Give one outcome, nothing more. List: active, inactive

QUERY: Recorded test outcome, item CC1COCCN1c1cc(-c2ccnn2C)c2ccnc(-c3ccn[nH]3)c2n1 (configuration not stated) + COc1cc2c(cc1O)CCNC21CSC2c3c(OC(C)=O)c(C)c4c(c3C(COC1=O)N1C(O)C3Cc5cc(C)c(OC)c(O)c5C(C21)N3C)OCO4
RESULT: active

QUERY: Per the records of this test, what outcome belongs to Cc1cc(C)c(CNC(=O)c2cc(-c3ccc(CN4CCOCC4)cc3)cc3c2cnn3C2CCCC2)c(=O)[nH]1 + CC[C@@]1(O)C(=O)OCc2c1cc1n(c2=O)Cc2cc3c(CN(C)C)c(O)ccc3nc2-1 ?
RESULT: inactive

QUERY: Hello, I am checking results. What call was entered for COc1cc(C)[nH]c(=O)c1CN1CCc2c(Cl)cc(C(OC)C3COC3)c(Cl)c2C1=O (configuration not stated) + COc1cc2c(cc1O)CCNC21CSC2c3c(OC(C)=O)c(C)c4c(c3C(COC1=O)N1C(O)C3Cc5cc(C)c(OC)c(O)c5C(C21)N3C)OCO4 ?
RESULT: active

QUERY: Which outcome did this test record for the compound Cc1cc(C)c(CNC(=O)c2cc(-c3ccc(CN4CCOCC4)cc3)cc3c2cnn3C2CCCC2)c(=O)[nH]1 + COc1cc2c(cc1O)CCNC21CSC2c3c(OC(C)=O)c(C)c4c(c3C(COC1=O)N1C(O)C3Cc5cc(C)c(OC)c(O)c5C(C21)N3C)OCO4 ?
RESULT: active

QUERY: Short answer needed: outcome of this test for CC1COCCN1c1cc(-c2ccnn2C)c2ccnc(-c3ccn[nH]3)c2n1 (configuration not stated) + CC[C@@]1(O)C(=O)OCc2c1cc1n(c2=O)Cc2cc3c(CN(C)C)c(O)ccc3nc2-1 ?
RESULT: inactive

QUERY: // outcome(item) with item = COc1ccc([C@@H](O)c2cc(-c3ncnc4cc(N5CCOCC5)ccc34)c(F)cc2Cl)nn1 + CC[C@@]1(O)C(=O)OCc2c1cc1n(c2=O)Cc2cc3c(CN(C)C)c(O)ccc3nc2-1
RESULT: inactive

QUERY: Dear all, I need the recorded test outcome for COc1cc(C)[nH]c(=O)c1CN1CCc2c(Cl)cc(C(OC)C3COC3)c(Cl)c2C1=O (configuration not stated) + CC[C@@]1(O)C(=O)OCc2c1cc1n(c2=O)Cc2cc3c(CN(C)C)c(O)ccc3nc2-1 , thank you.
RESULT: inactive

###

Hi there, I'd appreciate the recorded viability, T/C for every entry that follows.
System: 349418-098-R tumor spheroid viability
Method summary: Anticancer human tumor 349418-098-R cell line growth inhibition;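 also: spheroids exposed to compound for 7 days before measurement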;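 as to viability, T/C: percent of vehicle control viability with 100% = DMSO-treated spheroids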
Condition notes: second compound 31.6 µM; first compound 0.0316 µM; stronger effect = lower value; spheroids with HUVEC and MSC
State just the number; it will be interpreted in %.

QUERY: What value of viability, T/C has been recorded for this entry: CC(C)n1c(=O)n(C)c2cnc3cc(F)c(-c4ccc(OCCCN5CCCCC5)nc4)cc3c21 + Cn1nnc2c(C(N)=O)ncn2c1=O
RESULT: 102

QUERY: Please report the recorded viability, T/C for Cc1cc(C)c(CNC(=O)c2cc(-c3ccc(CN4CCOCC4)cc3)cc3c2cnn3C2CCCC2)c(=O)[nH]1 + Cn1nnc2c(C(N)=O)ncn2c1=O .
RESULT: 99.2

QUERY: Which viability, T/C value is on record for CC1COCCN1c1cc(-c2ccnn2C)c2ccnc(-c3ccn[nH]3)c2n1 (stereo unspecified) + Cn1nnc2c(C(N)=O)ncn2c1=O ?
RESULT: 91.9

QUERY: Which viability, T/C reading was recorded for the molecule COc1ccc([C@@H](O)c2cc(-c3ncnc4cc(N5CCOCC5)ccc34)c(F)cc2Cl)nn1 + Cn1nnc2c(C(N)=O)ncn2c1=O ?
RESULT: 99.1

QUERY: Requested read-out: viability, T/C. Entry: COc1cc(C)[nH]c(=O)c1CN1CCc2c(Cl)cc(C(OC)C3COC3)c(Cl)c2C1=O (stereo unspecified) + Cn1nnc2c(C(N)=O)ncn2c1=O
RESULT: 104

QUERY: # query: viability, T/C of entry [2H]c1nc(C)nc([2H])c1-c1cc(NC[C@@H](C)c2cccc3c(C(=O)NC)ccnc23)ncn1 + Cn1nnc2c(C(N)=O)ncn2c1=O
RESULT: 97.8

###

Provide the recorded viability, T/C for the entries that follow.
System: 349418-098-R tumor spheroid viability
Method summary: Anticancer human tumor 349418-098-R cell line growth inhibition;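 also: spheroids exposed to compound for 7 days before measurement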;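 as to viability, T/C: percent of vehicle control viability with 100% = DMSO-treated spheroids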
Condition notes: second compound 30 pM; first compound 0.3 µM; stronger effect = lower value; spheroids with HUVEC and MSC

QUERY: Given CNCc1ccc(-c2cc(-c3nc(-c4ccc(S(=O)(=O)C(C)C)cc4)cnc3N)on2)cc1 + COc1cc2c(cc1O)CCNC21CSC2c3c(OC(C)=O)c(C)c4c(c3C(COC1=O)N1C(O)C3Cc5cc(C)c(OC)c(O)c5C(C21)N3C)OCO4 , state its recorded viability, T/C.
RESULT: 69.6%

QUERY: // query viability, T/C value for entry Cc1sc2c(c1C)C(c1ccc(Cl)cc1)=NC(CC(=O)Nc1ccc(O)cc1)c1nnc(C)n1-2 (centres undefined) + COc1cc2c(cc1O)CCNC21CSC2c3c(OC(C)=O)c(C)c4c(c3C(COC1=O)N1C(O)C3Cc5cc(C)c(OC)c(O)c5C(C21)N3C)OCO4
RESULT: 22.3%

QUERY: Please give the measured viability, T/C for this molecule: Cn1ncnc1[C@H]1c2n[nH]c(=O)c3cc(F)cc(c23)N[C@@H]1c1ccc(F)cc1 + COc1cc2c(cc1O)CCNC21CSC2c3c(OC(C)=O)c(C)c4c(c3C(COC1=O)N1C(O)C3Cc5cc(C)c(OC)c(O)c5C(C21)N3C)OCO4
RESULT: 93.5%

QUERY: Entry O=C(c1cc(Cc2n[nH]c(=O)c3ccccc23)ccc1F)N1CCN(C(=O)C2CC2)CC1 + COc1cc2c(cc1O)CCNC21CSC2c3c(OC(C)=O)c(C)c4c(c3C(COC1=O)N1C(O)C3Cc5cc(C)c(OC)c(O)c5C(C21)N3C)OCO4 has what viability, T/C?
RESULT: 107%

###

System: 349418-098-R tumor spheroid viability
Method summary: Anticancer human tumor 349418-098-R cell line growth inhibition; active means viability on the fitted dose curve at most 10% of control; inactive means the rest;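 also: spheroids exposed to compound for 7 days before measurement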
Condition notes: second compound 94.9 pM; first compound 0.3 µM; spheroids with HUVEC and MSC
The reply should be one of these categories: active, inactive

QUERY: // outcome(item) with item = Cc1sc2c(c1C)C(c1ccc(Cl)cc1)=NC(CC(=O)Nc1ccc(O)cc1)c1nnc(C)n1-2 (centres undefined) + COc1cc2c(cc1O)CCNC21CSC2c3c(OC(C)=O)c(C)c4c(c3C(COC1=O)N1C(O)C3Cc5cc(C)c(OC)c(O)c5C(C21)N3C)OCO4
RESULT: active

QUERY: How was CNCc1ccc(-c2cc(-c3nc(-c4ccc(S(=O)(=O)C(C)C)cc4)cnc3N)on2)cc1 + COc1cc2c(cc1O)CCNC21CSC2c3c(OC(C)=O)c(C)c4c(c3C(COC1=O)N1C(O)C3Cc5cc(C)c(OC)c(O)c5C(C21)N3C)OCO4 classified in this test?
RESULT: inactive

QUERY: Hello, I am checking results. What call was entered for O=C(c1cc(Cc2n[nH]c(=O)c3ccccc23)ccc1F)N1CCN(C(=O)C2CC2)CC1 + COc1cc2c(cc1O)CCNC21CSC2c3c(OC(C)=O)c(C)c4c(c3C(COC1=O)N1C(O)C3Cc5cc(C)c(OC)c(O)c5C(C21)N3C)OCO4 ?
RESULT: inactive

QUERY: Assay outcome for Cn1ncnc1[C@H]1c2n[nH]c(=O)c3cc(F)cc(c23)N[C@@H]1c1ccc(F)cc1 + COc1cc2c(cc1O)CCNC21CSC2c3c(OC(C)=O)c(C)c4c(c3C(COC1=O)N1C(O)C3Cc5cc(C)c(OC)c(O)c5C(C21)N3C)OCO4 : what was it?
RESULT: inactive
